# Tested on: 885512-296-R-J2-PDC complex spheroid growth, % test/control;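 note: spheroids exposed to compounds for seven days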
# ASSAY INFO: Anticancer human tumor 885512-296-R-J2-PDC patient-derived breast carcinoma cell line growth inhibition [AhR]
# RUN CONDITIONS: second compound 0.1 µM; first compound 0.3 µM; active compounds read low
Doc: threshold 1% (exclusive). Items with viability, T/C beneath it return YES; others return NO.

MOLECULE | EXPERIMENTAL SYSTEM | GROUP LABEL
O=C(C=Cn1cnc(-c2cc(C(F)(F)F)cc(C(F)(F)F)c2)n1)NNc1cnccn1 + Cc1cncc(-c2nc(NCCc3c[nH]c4ccccc34)c3ncn(C(C)C)c3n2)c1 | 885512-296-R-J2-PDC complex spheroid growth, % test/control | NO

Ask: Criterion: viability, T/C strictly below 1%. Is it met by Nc1ncn(C2CC(O)C(CO)S2)c(=O)n1 (configuration not stated) + Cc1cncc(-c2nc(NCCc3c[nH]c4ccccc34)c3ncn(C(C)C)c3n2)c1 ?
Reply: NO

Ask: Criterion: viability, T/C strictly below 1%. Is it met by O=C(C=Cn1cnc(-c2cc(C(F)(F)F)cc(C(F)(F)F)c2)n1)NNc1cnccn1 + Cc1ccccc1N=Nc1ccc(NC(=O)c2ccnn2C)c(C)c1 ?
Reply: NO

Ask: Criterion: viability, T/C strictly below 1%. Is it met by CCN(c1cc(-c2ccc(CN3CCOCC3)cc2)cc(C(=O)NCc2c(C)cc(C)[nH]c2=O)c1C)C1CCOCC1 + CC(CO)NC(=O)c1cc(-c2ccc(Cl)cc2)nn(-c2cnn(C)c2)c1=O ?
Reply: NO

Ask: Criterion: viability, T/C strictly below 1%. Is it met by CC(C)CC(NC(=O)C(Cc1ccccc1)NC(=O)c1cnccn1)B(O)O (configuration not stated) + CC(CO)NC(=O)c1cc(-c2ccc(Cl)cc2)nn(-c2cnn(C)c2)c1=O ?
Reply: YES

Ask: Criterion: viability, T/C strictly below 1%. Is it met by CCc1c2c(nc3ccc(O)cc13)-c1cc3c(c(=O)n1C2)COC(=O)[C@]3(O)CC + Cc1cncc(-c2nc(NCCc3c[nH]c4ccccc34)c3ncn(C(C)C)c3n2)c1 ?
Reply: NO

Ask: Criterion: viability, T/C strictly below 1%. Is it met by CCc1c2c(nc3ccc(O)cc13)-c1cc3c(c(=O)n1C2)COC(=O)[C@]3(O)CC + CC(CO)NC(=O)c1cc(-c2ccc(Cl)cc2)nn(-c2cnn(C)c2)c1=O ?
Reply: NO

Ask: Criterion: viability, T/C strictly below 1%. Is it met by Nc1ncn(C2CC(O)C(CO)S2)c(=O)n1 (configuration not stated) + Cc1ccccc1N=Nc1ccc(NC(=O)c2ccnn2C)c(C)c1 ?
Reply: NO

Ask: Criterion: viability, T/C strictly below 1%. Is it met by CCc1c2c(nc3ccc(O)cc13)-c1cc3c(c(=O)n1C2)COC(=O)[C@]3(O)CC + Cc1ccccc1N=Nc1ccc(NC(=O)c2ccnn2C)c(C)c1 ?
Reply: NO

Ask: Criterion: viability, T/C strictly below 1%. Is it met by CCN(c1cc(-c2ccc(CN3CCOCC3)cc2)cc(C(=O)NCc2c(C)cc(C)[nH]c2=O)c1C)C1CCOCC1 + Cc1cncc(-c2nc(NCCc3c[nH]c4ccccc34)c3ncn(C(C)C)c3n2)c1 ?
Reply: NO

Ask: Criterion: viability, T/C strictly below 1%. Is it met by CC(C)CC(NC(=O)C(Cc1ccccc1)NC(=O)c1cnccn1)B(O)O (configuration not stated) + Cc1cncc(-c2nc(NCCc3c[nH]c4ccccc34)c3ncn(C(C)C)c3n2)c1 ?
Reply: YES

Ask: Criterion: viability, T/C strictly below 1%. Is it met by Nc1ncn(C2CC(O)C(CO)S2)c(=O)n1 (configuration not stated) + CC(CO)NC(=O)c1cc(-c2ccc(Cl)cc2)nn(-c2cnn(C)c2)c1=O ?
Reply: NO

Sourced from PubChem BioAssay AID1919006
